Would you mind telling me the reported pIC50 of each entry?
Biological target: PHD2 (Homo sapiens)
Construct: FLAG-tagged full length PHD2expressed in and purified from baculovirus-infected Sf9 cells; FLAG
Sequence (Q9GZT9 whole entry): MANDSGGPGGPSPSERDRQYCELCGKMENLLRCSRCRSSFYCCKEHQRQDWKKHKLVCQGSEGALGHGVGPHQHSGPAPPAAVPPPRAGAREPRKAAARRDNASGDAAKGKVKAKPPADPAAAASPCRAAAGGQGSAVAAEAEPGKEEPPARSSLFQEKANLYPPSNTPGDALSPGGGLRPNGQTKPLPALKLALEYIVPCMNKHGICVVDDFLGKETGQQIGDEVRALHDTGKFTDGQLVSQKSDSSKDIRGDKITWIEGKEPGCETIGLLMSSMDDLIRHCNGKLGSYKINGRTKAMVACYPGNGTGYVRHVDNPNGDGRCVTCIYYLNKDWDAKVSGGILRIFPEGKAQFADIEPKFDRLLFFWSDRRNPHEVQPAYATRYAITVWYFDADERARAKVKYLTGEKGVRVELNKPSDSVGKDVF
Test: Assay for HIF-PHD2 Catalytic Activity (time resolved fluorescence, VHL complex detection)
Details: FLAG-tagged full length PHD2; 0.2 μM 2-oxoglutarate, 0.5 μM HIF-1α peptide; read-out: PHD2 Binding Activity IC50
Protocol: Assay for HIF-PHD2Catalytic Activity To each well of a 96-well plate was added 1 μL of test compound in DMSO and 20 μl of assay buffer (50 mM Tris pH 7.4/0.01% Tween-20/0.1 mg/ml bovine serum albumin/10 μM ferrous sulfate/1mM sodium ascorbate/20 μg/ml catalase) containing 0.15 μg/ml FLAG-tagged full length PHD2expressed in and purified from baculovirus-infected Sf9 cells. […]
pIC50: −log10 of the molar value.

# compound, pIC50
records = [
    ("CC(C)Oc1ccc(Cn2c3c(c(O)c(C(=O)NCC(=O)O)c2=O)COC3)cc1 [Example 8]", "> 8.00"),
    ("Cc1nn(-c2ccccc2)nc1Cn1c2c(c(O)c(C(=O)NCC(=O)O)c1=O)COC2 [Example 21]", "> 8.00"),
    ("CC1(C)OCc2c(O)c(C(=O)NCC(=O)O)c(=O)n(Cc3nc4ccccc4s3)c21 [Example 25]", "7.00 to 8.00"),
    ("Cc1cnc(Cn2c3c(c(O)c(C(=O)NCC(=O)O)c2=O)COC3)cn1 [Example 7]", "> 8.00"),
    ("O=C(O)CNC(=O)c1c(O)c2c(n(Cc3cccnn3)c1=O)COC2 [Example 4]", "> 8.00"),
    ("O=C(O)CNC(=O)c1c(O)c2c(n(Cc3ccc(Cl)nc3)c1=O)COC2 [Example 9]", "> 8.00"),
]

I need pIC50 for every entry listed below, if you could help.
1. O=C(O)CNC(=O)c1c(O)c2c(n(Cc3cnc(-c4ccc(F)cc4F)cn3)c1=O)COC2 [Example 51]
2. O=C(O)CNC(=O)c1c(O)c2c(n(Cc3ccc(-c4ccccc4OC(F)(F)F)nc3)c1=O)COC2 [Example 48]

Given back:
> 8.00
> 8.00
